# System: Candida albicans
# test method notes: Antimicrobial activity against fluconazole-resistant Candida albicans ATCC 14503 after 16 to 18 hrs by microbroth dilution assay
# Assay type: functional

- molecule: "O[C@]12CCCCCC[C@@H]3CCN4CCC[C@@H](CCCCCC[C@@H]5CCN(CCC1)[C@H]2O5)[C@@H]4O3"
  target of assay: "Candida albicans"
  MIC / µg/mL: 100
- molecule: "C1CCC[C@@H]2CCCN3CC[C@@H](CCCCCC[C@@H]4CCCN5CC[C@@H](CC1)O[C@@H]45)O[C@@H]23"
  target of assay: "Candida albicans"
  MIC / µg/mL: 100
- molecule: "OC(Cn1cncn1)(Cn1cncn1)c1ccc(F)cc1F [FLUCONAZOLE]"
  target of assay: "Candida albicans"
  MIC / µg/mL: 1
- molecule: "C1CCC[C@H]2CCCN3CC[C@@H](CCCCCC[C@@H]4CCCN5CC[C@@H](CC1)O[C@@H]45)O[C@@H]23"
  target of assay: "Candida albicans"
  MIC / µg/mL: 100
- molecule: "O[C@]12CCCCCC[C@@H]3CCN4CCC[C@H](CCCCCC[C@@H]5CCN(CCC1)[C@H]2O5)[C@@H]4O3 [(+)-DEMETHYLXESTOSPONGIN B]"
  target of assay: "Candida albicans"
  MIC / µg/mL: 100
- molecule: "C[C@@H]1[C@H](O)[C@@H](C)/C=C/C=C/C=C/C=C/C=C/C=C/C=C/[C@H](O[C@@H]2O[C@H](C)[C@@H](O)[C@H](N)[C@@H]2O)C[C@@H]2O[C@](O)(C[C@@H](O)C[C@@H](O)[C@H](O)CC[C@@H](O)C[C@@H](O)CC(=O)O[C@H]1C)C[C@H](O)[C@H]2C(=O)O [AMPHOTERICIN B]"
  target of assay: "Candida albicans"
  MIC / µg/mL: 0.3
